Provide the recorded thermal stability score for the entries that follow.
test system: HeLa Kyoto; assay: thermal stability score vs G1/S (z-score of summed log2 fold changes over temperatures); higher = more thermally stable than in G1/S; settings: cell cycle stage: mitosis
Give bare numbers.

Use these answered entries as a reference point.
MASYPYRQGCPGAAGQAPGAPPGSYYPGPPNSGGQYGSGLPPGGGYGGPAPGGPYGPPAGGGPYGHPNPGMFPSGTPGGPYGGAAPGGPYGQPPPSSYGAQQPGLYGQGGAPPNVDPEAYSWFQSVDSDHSGYISMKELKQALVNCNWSSFNDETCLMMINMFDKTKSGRIDVYGFSALWKFIQQWKNLFQQYDRDRSGSISYTELQQALSQMGYNLSPQFTQLLVSRYCPRSANPAMQLDRFIQVCTQLQVLTEAFREKDTAVQGNIRLSFEDFVTMTASRML [PEF1]    -1.2
MPKAKGKTRRQKFGYSVNRKRLNRNARRKAAPRIECSHIRHAWDHAKSVRQNLAEMGLAVDPNRAVPLRKRKVKAMEVDIEERPKELVRKPYVLNDLEAEASLPEKKGNTLSRDLIDYVRYMVENHGEDYKAMARDEKNYYQDTPKQIRSKINVYKRFYPAEWQDFLDSLQKRKMEVE [NOP16]    -6.32
MSGEPGQTSVAPPPEEVEPGSGVRIVVEYCEPCGFEATYLELASAVKEQYPGIEIESRLGGTGAFEIEINGQLVFSKLENGGFPYEKDLIEAIRRASNGETLEKITNSRPPCVIL [MIEN1]    0.00566
MADDLGDEWWENQPTGAGSSPEASDGEGEGDTEVMQQETVPVPVPSEKTKQPKECFLIQPKERKENTTKTRKRRKKKITDVLAKSEPKPGLPEDLQKLMKDYYSSRRLVIELEELNLPDSCFLKANDLTHSLSSYLKEICPKWVKLRKNHSEKKSVLMLIICSSAVRALELIRSMTAFRGDGKVIKLFAKHIKVQAQVKLLEKRVVHLGVGTPGRIKELVKQGGLNLSPLKFLVFDWNWRDQKLRRMMDIPEIRKEVFELLEMGVLSLCKSESLKLGLF [CMSS1]    0.589

Now, please, on to the next sequence.
Prompt line: Tell me measured thermal stability score for MLVLRSALTRALASRTLAPQMCSSFATGPRQYDGIFYEFRSYYLKPSKMNEFLENFEKNAHLRTAHSELVGYWSVEFGGRMNTVFHIWKYDNFAHRTEVRKALAKDKEWQEQFLIPNLALIDKQESEITYLVPWCKLEKPPKEGVYELATFQMKPGGPALWGDAFKRAVHAHVNLGYTKLVGVFHTEYGALNRVHVLWWNESADSRAAGRHKSHEDPRVVAAVRESVNYLVSQQNMLLIPTSFSPLK [NIPSNAP3A] please.
Response line: -2.47

---

Please respond with reported thermal stability score for every item in the list.
system: HeLa Kyoto; experiment: thermal stability score vs G1/S (z-score of summed log2 fold changes over temperatures); higher = more thermally stable than in G1/S; conditions: cell cycle stage: mitosis;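 further: synchronized HeLa Kyoto cells, proteins quantified by TMT10plex mass spectrometry, three biological replicates, mitosis taken 0.5 h after nocodazole release, G1/S directly after double thymidine block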
One number for each entry.

MKLPIFIADAFTARAFRGNPAAVCLLENELDEDMHQKIAREMNLSETAFIRKLHPTDNFAQSSCFGLRWFTPASEVPLCGHATLASAAVLFHKIKNMNSTLTFVTLSGELRARRAEDGIVLDLPLYPAHPQDFHEVEDLIKTAIGNTLVQDICYSPDTQKLLVRLSDVYNRSFLENLKVNTENLLQVENTGKVKGLILTLKGEPGGQTQAFDFYSRYFAPWVGVAEDPVTGSAHAVLSSYWSQHLGKKEMHAFQCSHRGGELGISLRPDGRVDIRGGAAVVLEGTLTA [PBLD]    0.989
MGGTTSTRRVTFEADENENITVVKGIRLSENVIDRMKESSPSGSKSQRYSGAYGASVSDEELKRRVAEELALEQAKKESEDQKRLKQAKELDRERAAANEQLTRAILRERICSEEERAKAKHLARQLEEKDRVLKKQDAFYKEQLARLEERSSEFYRVTTEQYQKAAEEVEAKFKRYESHPVCADLQAKILQCYRENTHQTLKCSALATQYMHCVNHAKQSMLEKGG [CHCHD3]    -6
MVEADRPGKLFIGGLNTETNEKALEAVFGKYGRIVEVLLMKDRETNKSRGFAFVTFESPADAKDAARDMNGKSLDGKAIKVEQATKPSFESGRRGPPPPPRSRGPPRGLRGGRGGSGGTRGPPSRGGHMDDGGYSMNFNMSSSRGPLPVKRGPPPRSGGPPPKRSAPSGPVRSSSGMGGRAPVSRGRDSYGGPPRREPLPSRRDVYLSPRDDGYSTKDSYSSRDYPSSRDTRDYAPPPRDYTYRDYGHSSSRDDYPSRGYSDRDGYGRDRDYSDHPSGGSYRDSYESYGNSRSAPPTRGPPPSYGGSSRYDDYSSSRDGYGGSRDSYSSSRSDLYSSGRDRVGRQERGLPPSMERGYPPPRDSYSSSSRGAPRGGGRGGSRSDRGGGRSRY [RBMX]    7.17
MSGCRVFIGRLNPAAREKDVERFFKGYGRIRDIDLKRGFGFVEFEDPRDADDAVYELDGKELCSERVTIEHARARSRGGRGRGRYSDRFSSRRPRNDRRNAPPVRTENRLIVENLSSRVSWQDLKDFMRQAGEVTFADAHRPKLNEGVVEFASYGDLKNAIEKLSGKEINGRKIKLIEGSKRHSRSRSRSRSRTRSSSRSRSRSRSRSRKSYSRSRSRSRSRSRSKSRSVSRSPVPEKSQKRGSSSRSKSPASVDRQRSRSRSRSRSVDSGN [SRSF5]    -4.18
MQPPGPPPAYAPTNGDFTFVSSADAEDLSGSIASPDVKLNLGGDFIKESTATTFLRQRGYGWLLEVEDDDPEDNKPLLEELDIDLKDIYYKIRCVLMPMPSLGFNRQVVRDNPDFWGPLAVVLFFSMISLYGQFRVVSWIITIWIFGSLTIFLLARVLGGEVAYGQVLGVIGYSLLPLIVIAPVLLVVGSFEVVSTLIKLFGVFWAAYSAASLLVGEEFKTKKPLLIYPIFLLYIYFLSLYTGV [YIPF4]    -2.96
MYHNSSQKRHWTFSSEEQLARLRADANRKFRCKAVANGKVLPNDPVFLEPHEEMTLCKYYEKRLLEFCSVFKPAMPRSVVGTACMYFKRFYLNNSVMEYHPRIIMLTCAFLACKVDEFNVSSPQFVGNLRESPLGQEKALEQILEYELLLIQQLNFHLIVHNPYRPFEGFLIDLKTRYPILENPEILRKTADDFLNRIALTDAYLLYTPSQIALTAILSSASRAGITMESYLSESLMLKENRTCLSQLLDIMKSMRNLVKKYEPPRSEEVAVLKQKLERCHSAELALNVITKKRKGYEDDDYVSKKSKHEEEEWTDDDLVESL [CCNH]    1.73
MEAARTAVLRVKRKRSAEPAEALVLACKRLRSDAVESAAQKTSEGLERAAENNVFHLVATVCSQEEPVQPLLREVLRPSRDSQQRVRRNLRASAREVRQEGRYRVLSSRRSLGTTSSGQESEYTPGNPEAAGNSGFQLLDLVHEEGEPEAASAGSCKTSDPDVILCNSVELIRERLTVSEDGPGVRRQEEQKHDDYVYDIYYLETATPGWIENILSVQPYSQEWELVNDDQEPEDIYDDEDDENSENNWRNEYPEEESSDGDEDSRGSADYNSLSEEERGSSRQRMWSKYPLDVQKEFGYDSPHDLDSD [SLC7A6OS]    0.677
MDGEEQQPPHEANVEPVVPSEASEPVPRVLSGDPQNLSDVDAFNLLLEMKLKRRRQRPNLPRTVTQLVAEDGSRVYVVGTAHFSDDSKRDVVKTIREVQPDVVVVELCQYRVSMLKMDESTLLREAQELSLEKLQQAVRQNGLMSGLMQMLLLKVSAHITEQLGMAPGGEFREAFKEASKVPFCKFHLGDRPIPVTFKRAIAALSFWQKVRLAWGLCFLSDPISKDDVERCKQKDLLEQMMAEMIGEFPDLHRTIVSERDVYLTYMLRQAARRLELPRASDAEPRKCVPSVVVGVVGMGHVPGIEKNWSTDLNIQEIMTVPPPSVSGRVSRLAVKAAFFGLLGYSLYWMGRRTASLVLSLPAAQYCLQRVTEARHK [TRABD]    0.106
MGQCGITSSKTVLVFLNLIFWGAAGILCYVGAYVFITYDDYDHFFEDVYTLIPAVVIIAVGALLFIIGLIGCCATIRESRCGLATFVIILLLVFVTEVVVVVLGYVYRAKVENEVDRSIQKVYKTYNGTNPDAASRAIDYVQRQLHCCGIHNYSDWENTDWFKETKNQSVPLSCCRETASNCNGSLAHPSDLYAEGCEALVVKKLQEIMMHVIWAALAFAAIQLLGMLCACIVLCRRSRDPAYELLITGGTYA [TSPAN3]    -0.785

// next entry
Prompt line: Output thermal stability score of MESGAYGAAKAGGSFDLRRFLTQPQVVARAVCLVFALIVFSCIYGEGYSNAHESKQMYCVFNRNEDACRYGSAIGVLAFLASAFFLVVDAYFPQISNATDRKYLVIGDLLFSALWTFLWFVGFCFLTNQWAVTNPKDVLVGADSVRAAITFSFFSIFSWGVLASLAYQRYKAGVDDFIQNYVDPTPDPNTAYASYPGASVDNYQQPPFTQNAETTEGYQPPPVY [SYNGR2]
Response line: -3.51
